Data origin, for the record: the Immune Epitope Database (IEDB)

- Subject of test: HLA-B*15:01
- Experiment: IEDB peptide-MHC binding, purified MHC/direct/fluorescence; filed as Kd, often an IC50 or EC50 that approximates it; bounds were set here for any values at or beyond the usual limits of such assays
- Reported conditions: source organism: Mycobacterium tuberculosis
Task for the reader: assign each of the following sequences its reported Kd.

Solved cases below.
Problem: Entry `GPASLPTAL` has what Kd?
Solution: ≥ 20 µM

Problem: And then `EKAAWGVAL` , what is it?
Solution: ≥ 20 µM

Problem: And then `APRGFRAAF` , what is it?
Solution: ≥ 20 µM

Field: Kd. Fill in for each record below.
1. ALRSRWRAL
2. KYFVRSTEK

Solution:
1. 0.504 µM
2. ≥ 20 µM

---

- Subject of test: HLA-B*58:01
- Experiment: IEDB peptide-MHC binding, purified MHC/direct/fluorescence; filed as Kd, often an IC50 or EC50 that approximates it; bounds were set here for any values at or beyond the usual limits of such assays
- Reported conditions: source organism: Yersinia pestis
Task for the reader: assign each of the following sequences its reported Kd.

Problem: Entry `FMSLQSGDV` has what Kd?
Solution: ≥ 20 µM

Field: Kd. Fill in for each record below.
1. QLKSRAAVL
2. FLPPQIPVI

Solution:
≥ 20 µM
≥ 20 µM

---

- Subject of test: HLA-B*83:01
- Experiment: IEDB peptide-MHC binding, purified MHC/competitive/fluorescence; filed as Kd, often an IC50 or EC50 that approximates it; bounds were set here for any values at or beyond the usual limits of such assays
- Reported conditions: source organism: Salmonella enterica subsp. enterica serovar Typhi
Measured endpoint: Kd

Problem: Entry `AEFVFSCGI` has what Kd?
Solution: ≥ 5 µM

---

- Subject of test: HLA-A*26:03
- Experiment: IEDB peptide-MHC binding, purified MHC/competitive/fluorescence; filed as Kd, often an IC50 or EC50 that approximates it; bounds were set here for any values at or beyond the usual limits of such assays
- Reported conditions: source organism: Mycobacterium tuberculosis C
pKd: −log10 of the molar value.
Measured endpoint: pKd

Problem: Entry `TIHLATAPK` has what pKd?
Solution: ≤ 4.70

---

- Subject of test: HLA-B*15:42
- Experiment: IEDB peptide-MHC binding, purified MHC/competitive/fluorescence; filed as Kd, often an IC50 or EC50 that approximates it; bounds were set here for any values at or beyond the usual limits of such assays
- Reported conditions: source organism: Salmonella enterica subsp. enterica serovar Typhi
Task for the reader: assign each of the following sequences its reported Kd.

Problem: // fetch HLA-B*15:42 Kd for `AEFVFSCGI`
Solution: ≥ 5 µM

Then this sequence:
Problem: // fetch HLA-B*15:42 Kd for `MTMLTRWKI`
Solution: ≥ 5 µM

---

Task for the reader: assign each of the following sequences its reported pKd.
- Subject of test: HLA-A*01:01
- Experiment: IEDB peptide-MHC binding, purified MHC/direct/fluorescence; filed as Kd, often an IC50 or EC50 that approximates it; bounds were set here for any values at or beyond the usual limits of such assays
- Reported conditions: source organism: Vibrio cholerae
pKd: −log10 of the molar value.

Problem: Entry `REVFDYLLP` has what pKd?
Solution: ≤ 4.70

Then this sequence:
Problem: Entry `FLHPKHWGT` has what pKd?
Solution: ≤ 4.70

---

- Subject of test: HLA-B*44:02
- Experiment: IEDB peptide-MHC binding, purified MHC/direct/fluorescence; filed as Kd, often an IC50 or EC50 that approximates it; bounds were set here for any values at or beyond the usual limits of such assays
- Reported conditions: source organism: Salmonella enterica
Measured endpoint: Kd

Problem: Entry `ALMRWRHPR` has what Kd?
Solution: ≥ 20 µM

---

- Subject of test: HLA-A*11:01
- Experiment: IEDB peptide-MHC binding, purified MHC/direct/fluorescence; filed as Kd, often an IC50 or EC50 that approximates it; bounds were set here for any values at or beyond the usual limits of such assays
- Reported conditions: source organism: Homo sapiens
Measured endpoint: Kd

Problem: // fetch HLA-A*11:01 Kd for `ETFNTPAMY`
Solution: ≥ 38.9 µM

---

- Subject of test: HLA-A*02:01
- Experiment: IEDB peptide-MHC binding, purified MHC/competitive/radioactivity; filed as Kd, often an IC50 or EC50 that approximates it; bounds were set here for any values at or beyond the usual limits of such assays
- Reported conditions: source organism: Hepatitis C virus subtype 3a
Measured endpoint: pKd
Answers are plain numbers, as −log10 of the molar value.

Problem: Entry `YVLPRRGPRL` has what pKd?
Solution: 5.45

---

- Subject of test: HLA-B*40:01
- Experiment: IEDB peptide-MHC binding, purified MHC/direct/fluorescence; filed as Kd, often an IC50 or EC50 that approximates it; bounds were set here for any values at or beyond the usual limits of such assays
- Reported conditions: source organism: Pseudomonas putida
pKd: −log10 of the molar value.
Measured endpoint: pKd

Problem: Entry `VMTEGRHAV` has what pKd?
Solution: ≤ 4.70

---

Task for the reader: assign each of the following sequences its reported IC50.
- Subject of test: HLA-A*02:01
- Experiment: IEDB peptide-MHC binding, purified MHC/competitive/radioactivity; bounds were set here for any values at or beyond the usual limits of such assays
- Reported conditions: source organism: Homo sapiens
Give bare numbers, in nM.

Solved cases below.
Problem: Entry `VILGVLLLI` has what IC50?
Solution: 164

Problem: And then `PTLDKVLEV` , what is it?
Solution: 2000

Problem: And then `LLDGTATLRL` , what is it?
Solution: 500

Then this sequence:
Problem: Entry `GLGQVPLIV` has what IC50?
Solution: 500

---

- Subject of test: HLA-B*18:01
- Experiment: IEDB peptide-MHC binding, purified MHC/competitive/radioactivity; filed as Kd, often an IC50 or EC50 that approximates it; bounds were set here for any values at or beyond the usual limits of such assays
- Reported conditions: source organism: Mammarenavirus guanaritoense
Measured endpoint: pKd
Answers are plain numbers, as −log10 of the molar value.

Problem: Entry `LENAQPGLL` has what pKd?
Solution: 4.97

---

- Subject of test: HLA-A*32:01
- Experiment: IEDB peptide-MHC binding, purified MHC/competitive/radioactivity; filed as Kd, often an IC50 or EC50 that approximates it; bounds were set here for any values at or beyond the usual limits of such assays
- Reported conditions: source organism: Dengue virus 2 Jamaica/1409/1983
Measured endpoint: Kd (µM)
Numbers only, in µM.

Problem: Entry `GTFHTMWHVT` has what Kd?
Solution: 13.4

Then this sequence:
Problem: Entry `RSTSLSVSL` has what Kd?
Solution: 0.1

---

- Subject of test: HLA-B*53:01
- Experiment: IEDB peptide-MHC binding, purified MHC/competitive/radioactivity; filed as Kd, often an IC50 or EC50 that approximates it; bounds were set here for any values at or beyond the usual limits of such assays
- Reported conditions: source organism: Vaccinia virus WR
Measured endpoint: Kd

Problem: Entry `EPLSPDTCLL` has what Kd?
Solution: 289 nM

Problem: And then `EPVVKDKIKL` , what is it?
Solution: ≥ 54200 nM

Problem: And then `DPEKFNARMA` , what is it?
Solution: ≥ 44700 nM

Problem: And then `LPYVGDTSMM` , what is it?
Solution: 8530 nM

Problem: And then `RPEMQEFEY` , what is it?
Solution: 16.7 nM

Problem: And then `IPGDILSII` , what is it?
Solution: 27.5 nM

Then this sequence:
Problem: Entry `DPQNAAVNV` has what Kd?
Solution: ≥ 36800 nM

---

- Subject of test: HLA-A*30:02
- Experiment: IEDB peptide-MHC binding, purified MHC/competitive/radioactivity; filed as Kd, often an IC50 or EC50 that approximates it; bounds were set here for any values at or beyond the usual limits of such assays
- Reported conditions: source organism: Dengue virus 3 Martinique/1243/1999
Measured endpoint: pKd
Give bare numbers, as −log10 of the molar value.

Problem: Entry `VLPEEQDQNY` has what pKd?
Solution: 5.16

---

- Subject of test: HLA-B*07:02
- Experiment: IEDB peptide-MHC binding, purified MHC/competitive/radioactivity; filed as Kd, often an IC50 or EC50 that approximates it; bounds were set here for any values at or beyond the usual limits of such assays
- Reported conditions: source organism: Lymphocytic choriomeningitis virus (strain Armstrong)
Task for the reader: assign each of the following sequences its reported pKd.
Answers are plain numbers, as −log10 of the molar value.

Problem: Entry `MPEWANFKF` has what pKd?
Solution: 6.11

Then this sequence:
Problem: Entry `HPIMYYTKF` has what pKd?
Solution: 6.87

---

- Subject of test: HLA-B*58:01
- Experiment: IEDB peptide-MHC binding, purified MHC/competitive/fluorescence; filed as Kd, often an IC50 or EC50 that approximates it; bounds were set here for any values at or beyond the usual limits of such assays
- Reported conditions: source organism: Pseudomonas aeruginosa UCBPP-PA14
Measured endpoint: Kd

Problem: Entry `AVFDGCVVY` has what Kd?
Solution: 1.12 µM
